Test: DIFI-log D: octanol-impregnated PVDF membrane (DIFI-tubes) / buffer distribution, UV readout
Conditions: pH 7.4
Checkbox rule: logD at 2 h lower than 4 = True; logD at 2 h not lower than 4 = False.

- CN(C)CC/C=C1/c2ccccc2Sc2ccc(Cl)cc21 [Chlorprothixene]: False
- CCOC(=O)C1=C(C)NC(C)=C(C(=O)OC)C1c1cccc(Cl)c1Cl (stereo not drawn) [Felodipine]: False
- COc1ccc([C@@H]2Sc3ccccc3N(CCN(C)C)C(=O)[C@@H]2OC(C)=O)cc1 [Diltiazem]: True
- C[C@]12CC[C@H]3[C@@H](CCC4=CC(=O)CC[C@@]43C)[C@@H]1CC[C@@H]2O [Testosterone]: True
- COc1ccccc1OCCNCC(O)COc1cccc2[nH]c3ccccc3c12 (stereo not drawn) [Carvedilol]: True
- COCCOC(=O)C1=C(C)NC(C)=C(C(=O)OC(C)C)C1c1cccc([N+](=O)[O-])c1 (stereo not drawn) [Nimodipine]: True
- Clc1ccc(C(c2ccccc2Cl)C(Cl)Cl)cc1 (stereo not drawn) [Mitotane]: False
- COc1ccc(CCN2CCC(Nc3nc4ccccc4n3Cc3ccc(F)cc3)CC2)cc1 [Astemizole]: False
- Clc1ccccc1C(c1ccccc1)(c1ccccc1)n1ccnc1 [Clotrimazole]: False

The reported measurements were obtained from patent US7527975B2.
